Property: growth inhibition; scope: individual compounds
protocol_text: NCI Yeast Anticancer Drug Screen. Data for the mlh1 rad18 strain (AID 175)
assay_context: S. cerevisiae mlh1 rad18 strain growth inhibition; at 50.0 µM; hits give high values
Procedure: Growth inhibition of yeast strains with defined genetic alterations is measured as a screen for potential anti-cancer activity. Selected strains with alterations in DNA damage repair or cell cycle control were exposed to compounds and growth inhibition was measured relative to vehicle treated controls. The strain used in this assay is mlh1 rad18
About 79,000 compounds went through this panel and 15% of them were active in at least one assay; those are over-represented in the sample as a whole.
Quick note: give the figure in %, leave out the unit.

Worked cases, answers included:
compound	unit_of_measure	growth inhibition
CC1=Cc2cc3[n-]c(cc4nc(cc5[n-]c(cc1n2)c(C)c5CCC(=O)O)C(CCC(=O)O)=C4C)cc3C.[Cu+2]	%	-0.5
CC(C)=CCNc1nc(Cl)nc2nc[nH]c12	%	-67.7
CCCCCCCCCCCCSCCSCCC	%	4.5

Next, consider the following compound.
QUERY: Find the measured growth inhibition of CC1=CC(=O)CCC1c1ccccc1 (stereo not drawn) and report it.
RESULT: -5.95
